List of MIC values.
Tested on: S. epidermidis 6943
measurement.notes: MIC, broth dilution
Assay type: cell-based
cond: CLSI broth dilution, MHB, 37°C, 20 h, OD630, at least three repeats; clinical isolate, MRSE
Where a SMILES comes first, the peptide text is derived from it.
State just the number; it will be interpreted in µg/mL.

compound: CC[C@H](C)[C@H](NC(=O)[C@H](CCCNC(=N)N)NC(=O)[C@H](CCCCN)NC(=O)[C@@H](NC(=O)[C@@H](N)Cc1ccccc1)[C@@H](C)CC)C(=O)N[C@@H](C)C(=O)N[C@@H](CCCNC(=N)N)C(=O)N[C@@H](CC(C)C)C(=O)N[C@@H](CC(C)C)C(=O)N[C@@H](CCCNC(=N)N)C(=O)N[C@@H](CCCCN)C(=O)N[C@H](C(=O)N[C@@H](Cc1ccccc1)C(N)=O)[C@@H](C)CC [BmKn2-7] (H-FIKRIARLLRKIF-NH2)
unit.abbreviation: µg/mL
MIC: 5

Consider the compound shown here: CC[C@H](C)[C@H](NC(=O)[C@H](CCCNC(=N)N)NC(=O)[C@H](CCCNC(=N)N)NC(=O)[C@@H](NC(=O)[C@@H](N)Cc1ccccc1)[C@@H](C)CC)C(=O)N[C@@H](C)C(=O)N[C@@H](CCCNC(=N)N)C(=O)N[C@@H](CC(C)C)C(=O)N[C@@H](CC(C)C)C(=O)N[C@@H](CCCNC(=N)N)C(=O)N[C@@H](CCCNC(=N)N)C(=O)N[C@H](C(=O)N[C@@H](Cc1ccccc1)C(N)=O)[C@@H](C)CC [BmKn2-7R] (H-FIRRIARLLRRIF-NH2) What is its recorded MIC? 5

Now consider CC[C@H](C)[C@H](NC(=O)[C@H](CCCCN)NC(=O)[C@H](CCCCN)NC(=O)[C@@H](NC(=O)[C@@H](N)Cc1ccccc1)[C@@H](C)CC)C(=O)N[C@@H](C)C(=O)N[C@@H](CCCCN)C(=O)N[C@@H](CC(C)C)C(=O)N[C@@H](CC(C)C)C(=O)N[C@@H](CCCCN)C(=O)N[C@@H](CCCCN)C(=O)N[C@H](C(=O)N[C@@H](Cc1ccccc1)C(N)=O)[C@@H](C)CC [BmKn2-7K] (H-FIKKIAKLLKKIF-NH2) and answer again. 2.5

Field entry: CC[C@H](C)[C@H](NC(=O)[C@H](C)NC(=O)CNC(=O)[C@@H](NC(=O)[C@@H](N)Cc1ccccc1)[C@@H](C)CC)C(=O)N[C@@H](C)C(=O)N[C@@H](CCCNC(=N)N)C(=O)N[C@@H](CC(C)C)C(=O)N[C@@H](CC(C)C)C(=O)N[C@@H](CO)C(=O)N[C@@H](CCCCN)C(=O)N[C@H](C(=O)N[C@@H](Cc1ccccc1)C(N)=O)[C@@H](C)CC [BmKn2] (H-FIGAIARLLSKIF-NH2) 5

---

Test system: S. aureus ATCC29213
measurement.notes: MIC, broth dilution
Assay type: cell-based, Staphylococcus aureus
cond: CLSI broth dilution, MHB, 6.25 × 10^5 cfu per ml, 37°C, 20 h, OD630, at least three repeats
Where a SMILES comes first, the peptide text is derived from it.
measured.property: MIC (µg/mL)
Hi! Could you send only the number? It should be in µg/mL, unit omitted.

compound: CC[C@H](C)[C@H](NC(=O)[C@H](CCCNC(=N)N)NC(=O)[C@H](CCCCN)NC(=O)[C@@H](NC(=O)[C@@H](N)Cc1ccccc1)[C@@H](C)CC)C(=O)N[C@@H](C)C(=O)N[C@@H](CCCNC(=N)N)C(=O)N[C@@H](CC(C)C)C(=O)N[C@@H](CC(C)C)C(=O)N[C@@H](CCCNC(=N)N)C(=O)N[C@@H](CCCCN)C(=O)N[C@H](C(=O)N[C@@H](Cc1ccccc1)C(N)=O)[C@@H](C)CC [BmKn2-7] (H-FIKRIARLLRKIF-NH2)
MIC, µg/mL: 5

Now look at this entry.
Lab note: need MIC for CC[C@H](C)[C@H](NC(=O)[C@H](C)NC(=O)CNC(=O)[C@@H](NC(=O)[C@@H](N)Cc1ccccc1)[C@@H](C)CC)C(=O)N[C@@H](C)C(=O)N[C@@H](CCCNC(=N)N)C(=O)N[C@@H](CC(C)C)C(=O)N[C@@H](CC(C)C)C(=O)N[C@@H](CO)C(=O)N[C@@H](CCCCN)C(=O)N[C@H](C(=O)N[C@@H](Cc1ccccc1)C(N)=O)[C@@H](C)CC [BmKn2] (H-FIGAIARLLSKIF-NH2) on S. aureus ATCC29213, anyone have it? 10

---

# key: entry, value: MIC
Test system: A. baumannii 13079
measurement.notes: MIC, broth dilution
Assay type: cell-based, Acinetobacter baumannii
cond: CLSI broth dilution, MHB, 37°C, 20 h, OD630, at least three repeats; clinical isolate, CRE, MDR
Where a SMILES comes first, the peptide text is derived from it.
Lab book: enter the figure in µg/mL, no units written.

Worked examples, 3 molecules total:
molecule: CC[C@H](C)[C@H](NC(=O)[C@H](C)NC(=O)CNC(=O)[C@@H](NC(=O)[C@@H](N)Cc1ccccc1)[C@@H](C)CC)C(=O)N[C@@H](C)C(=O)N[C@@H](CCCNC(=N)N)C(=O)N[C@@H](CC(C)C)C(=O)N[C@@H](CC(C)C)C(=O)N[C@@H](CO)C(=O)N[C@@H](CCCCN)C(=O)N[C@H](C(=O)N[C@@H](Cc1ccccc1)C(N)=O)[C@@H](C)CC [BmKn2] (H-FIGAIARLLSKIF-NH2)
measured.on: A. baumannii 13079
measured.property: MIC
meas.value: 10

molecule: CC[C@H](C)[C@H](NC(=O)[C@H](CCCNC(=N)N)NC(=O)[C@H](CCCNC(=N)N)NC(=O)[C@@H](NC(=O)[C@@H](N)Cc1ccccc1)[C@@H](C)CC)C(=O)N[C@@H](C)C(=O)N[C@@H](CCCNC(=N)N)C(=O)N[C@@H](CC(C)C)C(=O)N[C@@H](CC(C)C)C(=O)N[C@@H](CCCNC(=N)N)C(=O)N[C@@H](CCCNC(=N)N)C(=O)N[C@H](C(=O)N[C@@H](Cc1ccccc1)C(N)=O)[C@@H](C)CC [BmKn2-7R] (H-FIRRIARLLRRIF-NH2)
measured.on: A. baumannii 13079
measured.property: MIC
meas.value: 2.5

molecule: CC[C@H](C)[C@H](NC(=O)[C@H](CCCNC(=N)N)NC(=O)[C@H](CCCCN)NC(=O)[C@@H](NC(=O)[C@@H](N)Cc1ccccc1)[C@@H](C)CC)C(=O)N[C@@H](C)C(=O)N[C@@H](CCCNC(=N)N)C(=O)N[C@@H](CC(C)C)C(=O)N[C@@H](CC(C)C)C(=O)N[C@@H](CCCNC(=N)N)C(=O)N[C@@H](CCCCN)C(=O)N[C@H](C(=O)N[C@@H](Cc1ccccc1)C(N)=O)[C@@H](C)CC [BmKn2-7] (H-FIKRIARLLRKIF-NH2)
measured.on: A. baumannii 13079
measured.property: MIC
meas.value: 2.5

// below: MIC requested for another molecule
For CC[C@H](C)[C@H](NC(=O)[C@H](CCCCN)NC(=O)[C@H](CCCCN)NC(=O)[C@@H](NC(=O)[C@@H](N)Cc1ccccc1)[C@@H](C)CC)C(=O)N[C@@H](C)C(=O)N[C@@H](CCCCN)C(=O)N[C@@H](CC(C)C)C(=O)N[C@@H](CC(C)C)C(=O)N[C@@H](CCCCN)C(=O)N[C@@H](CCCCN)C(=O)N[C@H](C(=O)N[C@@H](Cc1ccccc1)C(N)=O)[C@@H](C)CC [BmKn2-7K] (H-FIKKIAKLLKKIF-NH2) , what is its reported MIC? 2.5

---

System: P. aeruginosa 9014
measurement.notes: Drug sensitivity, Kirby-Bauer test
Assay type: cell-based, Pseudomonas aeruginosa
Parameters: key: 'S' represents susceptibility; 'I' represents intermediate efficacy; 'R' represents resistance
cond: clinical isolate, CRE, MDR
measured.property: Drug sensitivity of the isolate to the antibiotic

structure.notation: CC1(C)S[C@@H]2[C@H](NC(=O)[C@H](N)c3ccccc3)C(=O)N2[C@H]1C(=O)O
meas.value: R
--
structure.notation: C[C@@H](O)[C@H]1C(=O)N2C(C(=O)O)=C(SCCN=CN)C[C@H]12
meas.value: R
--
structure.notation: NCC[C@H](O)C(=O)N[C@@H]1C[C@H](N)[C@@H](O[C@H]2O[C@H](CN)[C@@H](O)[C@H](O)[C@H]2O)[C@H](O)[C@H]1O[C@H]1O[C@H](CO)[C@@H](O)[C@H](N)[C@H]1O
meas.value: S
--
structure.notation: C[C@H]1COc2c(N3CCN(C)CC3)c(F)cc3c(=O)c(C(=O)O)cn1c23
meas.value: R
--
structure.notation: CC(C)(O/N=C(\C(=O)N[C@@H]1C(=O)N2C(C(=O)[O-])=C(C[n+]3ccccc3)CS[C@H]12)c1csc(N)n1)C(=O)O
meas.value: R

Okay, next one:
Recorded Drug sensitivity of the isolate to the antibiotic of C[C@@H](O)[C@H]1C(=O)N2C(C(=O)O)=C(S[C@@H]3CN[C@H](C(=O)N(C)C)C3)[C@H](C)[C@H]12 , please. I
